- assayed.target: Neu5Ac(a2-3)Gal(b1-3)[Fuc(a1-4)]GlcNAc
- assay.method.text: glycan array binding signal (z-score within array); higher = stronger binding
- condition.context: glycan notation: IUPAC condensed, linker removed
The sample as a whole holds a higher share of the strongest signals than the screen did.
Here the recorded glycan array binding signal (z-score) is given for each entry.
Field format: numeric only.

As a guide, the following entries are already answered.
1. CLC (Homo sapiens), Q9UBD9 (protein) MDLRAGDSWGMLACLCTVLWHLPAVPALNRTGDPGPGPSIQKTYDLTRYLEHQLRSLAGTYLNYLGPPFNEPDFNPPRLGAETLPRATVDLEVWRSLNDKLRLTQNYEAYSHLLCYLRGLNRQAATAELRRSLAHFCTSLQGLLGSIAGVMAALGYPLPQPLPGTEPTWTPGPAHSDFLQKMDDFWLLKELQTWLWRSAKDFNRLKKKMQPPAAAVTLHLGAHGF | -0.63
2. MGL2 (Mus musculus), Q8JZN1 (protein) MTMRYENFQNLEREEKNQEMRNGDKKGGMESPKFALIPSQSFLWRILSWTHLLLFSLGLSLLLLVVISVIGSQNSQLRRDLGTLRAILDNTTSKIKAEFQSLDSRADNFEKGISSLKVDVEDHRQELQAGRDLSQKVTSLESTLEKREQALKTDLSDLTDHVQQLETDLKALTCQLANLKNNGSEVACCPLHWTEHEGSCYWFSESEKSWPEADKYCRLENSHLVVVNSLEEQNFLQNRLANVLSWMGLTDQNGPWRWVDGTDFDKGFKNWRPLQPDNWHGHMLGGGEDCAHFSYDGRWNDDVCQRHYHWICETELGKASSAHSPQLIASVP | -0.173
3. CML1 (Coprinopsis cinerea) (protein) MAIFHTGSELFIITRGPGKLTLLTWGGLNNLRSVIGAIPTENTGVTKWAVSFSHNYTRFSFIWEGQGEACYQIGNGLTRSPVGRSWSSSSTIHWGSSTVITEDVTSVVPGAVNRDKVTTAYALPDNL | 4.64
4. Strep tagII-anxA1 (Homo sapiens), P04083 (protein) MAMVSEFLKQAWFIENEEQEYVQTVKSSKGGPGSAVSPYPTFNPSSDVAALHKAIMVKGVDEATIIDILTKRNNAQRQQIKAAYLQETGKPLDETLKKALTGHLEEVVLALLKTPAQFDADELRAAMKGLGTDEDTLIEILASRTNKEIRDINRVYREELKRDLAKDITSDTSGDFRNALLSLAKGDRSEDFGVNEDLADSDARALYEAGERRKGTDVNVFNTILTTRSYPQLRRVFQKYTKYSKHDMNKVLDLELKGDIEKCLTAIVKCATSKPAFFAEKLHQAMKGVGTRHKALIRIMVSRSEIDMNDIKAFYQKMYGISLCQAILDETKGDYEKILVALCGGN | -0.529
5. LlpB (Pseudomonas fluorescens) (protein) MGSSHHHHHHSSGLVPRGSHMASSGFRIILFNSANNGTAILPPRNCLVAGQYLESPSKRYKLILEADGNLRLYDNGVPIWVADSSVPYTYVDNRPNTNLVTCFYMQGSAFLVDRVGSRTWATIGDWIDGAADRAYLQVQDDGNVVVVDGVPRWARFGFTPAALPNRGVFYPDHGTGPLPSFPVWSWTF | 2.3

Then this binder:
Prompt: Indicate its recorded glycan array binding signal (z-score); the binder in question is RegIIIbeta (Mus musculus), P35230 (protein) MLPPTACSVMSWMLLSCLMLLSQVQGEDSLKNIPSARISCPKGSQAYGSYCYALFQIPQTWFDAELACQKRPGGHLVSVLNSAEASFLSSMVKRTGNSYQYTWIGLHDPTLGAEPNGGGWEWSNNDVMNYFNWERNPSTALDRAFCGSLSRASGFLKWRDMTCEVKLPYVCKFTG
Completion: -0.103
